System: MS2 coat protein
PROCEDURE TEXT: apparent KD of MS2 coat protein; higher = weaker reporter binding
CONDITION SUMMARY: Eterna round: R107; input ligand: arginine 13.2 mM
Could you please report measured apparent KD of MS2 coat protein for the items listed next?
Answers are plain numbers, in nM.

{"SEQUENCE DATA": "UGUAUGGACUGAAGGAGCGGAAGAUAACCUGAGGAUCACCCGGGUAAUAAGGCGAAAGCCUUCCAGGUAGGUCGCAGUCCAUACU", "apparent KD of MS2 coat protein, nM": 230}
{"SEQUENCE DATA": "AUAGUCUAGAGUGAUACCAGACUACAUGAGGAUCACCCAUGUAUCUUUUGGUUAUCAUGUGUCCCUUGGCAGCACGCAUGUAUAG [JR_ExcTheophyB_Sub013]", "apparent KD of MS2 coat protein, nM": 11.3}
{"SEQUENCE DATA": "AUACAUGAGGAUCACCCAUGUCAUUCAGAAGGAGCGUCAUUUUAGACAGGUAGGUCGCUGAUAUUAUUCUUAUACUUUAUGUUUA [JR_ExcArginiA_Sub022]", "apparent KD of MS2 coat protein, nM": 21}
{"SEQUENCE DATA": "UUAGAUAUGACGGAUACCAGCGUGUUGUAGAACAUGAGGAUCACCCAUGUAGUGAUCGAGCGCCCUUGGCAGCUGGUAUGUUUGG [7.T]", "apparent KD of MS2 coat protein, nM": 175}
{"SEQUENCE DATA": "AUUGUGAAGUCGGCCGCCACUGGUUAGUUUAACCUCAUGUAACAUGAGGAUCACCCAUGUAAUGACAGGACCGGGACAAUAGUAA [JR_ExcTryptoB_Sub015]", "apparent KD of MS2 coat protein, nM": 103}

Batch of 4 sequences: report apparent KD of MS2 coat protein for each.
1. UUUAGUAUCUUAGAUACCAGUUUUGGGUGCUGAACGUCUCACAUGAGGAUCACCCAUGUAAACCCUUGGCAGCUACAUACGUAAA [theeternabot_exclusion_MS2_Theo_B_41]
2. CUAUAUGGAAACAUAUAGAAGCGAAAGCAACGAGGACCGGUACGGCCGCCACUCGAAGAGUGGUGGACAUGAGGAUCACCCAUGU [Design 3]
3. UGUAUGUGAUCUGAUACCAGCUAAUAAGCUUGAGGAUCACCCAAGUGGAGCGGAAACGCAAGCCCUUGGCAGCAGAUCGCAUACU [Denovo 4 #StaticStem #AlternativeMS2]
4. GUUACCAUGUCGGCCGCCACUAACAAGGUUAUGGCAAGUCUACACGACAUGAGGAUCACCCAUGUUAGGACCGGGACCCAUACCC [theeternabot_exclusion_MS2_Trp_B_44]

Output:
35.7
40.8
60.9
12.2

Batch of 3 sequences: report apparent KD of MS2 coat protein for each.
1. UCGCCCAGGAAGGAUUCCUGGGAUAUGGAAGGAGCGCUGAUGCCAGCAGGUAGGUCGCCAACGGACAUGAGGAUCACCCAUGUAC [Same State - Arginine A (Freestyle 8)]
2. AUUAAUAAUAUGUAGACGGCGGAGACGAGACGAGGACCGGUACGGCCGCCACUCGUGUUAGUUAACAUGAGGAUCACCCAUGUUA [#10 Tryptophan A Same State]
3. UGAGAACAUGUCUUUAAGUUUACCUCUGAUACCAGAUUGAAAGGCAUCCCUUGGCAGCAGCAUACAUGAGGAUCACCCAUGUCCU [theeternabot_exclusion_MS2_Theo_A_12]

Output:
14.5
11.2
64.4
